target: PD-1/PD-L1 (Homo sapiens); construct: TVMV protease site linker (C); made in house; host or cells: HEK293T cells; experiment: PD-1/PD-L1 Homogenous Time-Resolved Fluorescence (HTRF) binding assay; details: PD-L1-His 10 nM, PD-1-Ig 20 nM
Sequence (Q9NZQ7 18-239): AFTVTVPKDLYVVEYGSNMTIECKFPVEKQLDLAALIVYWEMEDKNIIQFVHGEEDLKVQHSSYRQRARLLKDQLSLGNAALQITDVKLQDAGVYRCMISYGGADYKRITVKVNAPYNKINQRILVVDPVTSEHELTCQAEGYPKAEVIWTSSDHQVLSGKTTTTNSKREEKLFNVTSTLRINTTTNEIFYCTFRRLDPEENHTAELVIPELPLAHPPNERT
Listed here are compounds together with their documented IC50.
Numbers only; they are read as nM.

CC(=O)NC1CCN(CCCOc2cccc(-c3cccc(COc4cc(OCc5cncc(C#N)c5)c(CN5CCC(c6cnn(C)c6)C5)cc4Cl)c3C)c2C)CC1 (stereo not shown): 3.4
Cc1c(COc2cc(OCc3cncc(C#N)c3)c(CN3CCCCC3c3cn[nH]c3)cc2Cl)cccc1-c1cccc(OCC2CCCN(C)C2)c1Cl (stereo not shown): 2.8
CC(=O)NC1CCN(CCCOc2cccc(-c3cccc(COc4cc(OCc5cncc(C#N)c5)c(CN5CCCC(c6ncc[nH]6)C5)cc4Cl)c3C)c2C)CC1 (stereo not shown): 3.7
Cc1c(COc2cc(OCc3cncc(C#N)c3)c(CNCc3ncc[nH]3)cc2Cl)cccc1-c1cccc(OC2CCC(N3CCCC3)CC2)c1Cl (stereo not shown): 2.9
CC(=O)NC1CCN(CCCOc2cccc(-c3cccc(COc4cc(OCc5cncc(C#N)c5)c(CN5CCCCC5c5cn[nH]c5)cc4Cl)c3C)c2Cl)CC1 (stereo not shown): 3.6
CC(=O)NC1CCN(CCCOc2cccc(-c3cccc(COc4cc(OCc5cncc(C#N)c5)c(CN5CCCC(c6nnc[nH]6)C5)cc4Cl)c3C)c2C)CC1 (stereo not shown): 2.7

// next item, IC50 requested
**Q:** GET /values?readout=IC50&item= Cc1c(COc2cc(OCc3cncc(C#N)c3)c(CN3CCc4c(ncn4C)C3)cc2Cl)cccc1-c1cccc(OCC2CCCN(C)C2)c1Cl (stereo not shown)
**A:** 3.6

The measured values listed here are drawn from patent US20240124417A1.
